PROTOCOL_DESCRIPTION: reducers of endogenous Her2 protein level, primary screen, SKBR3 breast tumor cells, AlphaScreen, ATP viability (AID 461);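 note: percent of carrier control wells set as 100% viability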
EXPERIMENTAL_CONDITIONS: 18-24 h, measured here: SKBR3 viability, ATP luminescence, at 10 µM

| MOLECULE | viability, % |
| --- | --- |
| Nc1cc(C(=O)O)ccc1Nc1ccc(F)c(F)c1 | 88 |
| CCn1c(=O)c(C(=O)NCCc2ccccc2)c(O)c2ccccc21 | 99 |
| O=C(CCCN1CC=C(n2c(=O)[nH]c3ccccc32)CC1)c1ccc(F)cc1 | 77 |
| CCc1ccc(CN(C)CCc2ccccn2)cc1 | 108 |
| O=C1CSC(c2cn(-c3ccccc3)nc2-c2ccccc2)N1Cc1ccco1 (stereo unspecified) | 97 |
| CCOC(=O)CNC(=O)CSc1nc(N)cc(N)n1 | 92 |
| CS(=O)(=O)Nc1ccc(C(=O)NCCc2ccccc2)cc1 | 96.5 |
| O=S(=O)(NC1=NCCC1)c1cccs1 | 106 |
| CCC(Sc1nc(-c2ccccc2)c(C#N)c(=O)[nH]1)C(=O)Nc1cc(C)on1 (stereo unspecified) | 90.5 |
| Cc1sc2ncnc(OCC(=O)N3CCN(S(=O)(=O)c4ccccc4)CC3)c2c1C | 69.5 |
| C=CCn1c(SCC(=O)NC23CC4CC(CC(C4)C2)C3)nc(O)cc1=O | 138 |
| Cc1cn([C@H]2C[C@H](N=[N+]=[N-])[C@@H](CO)O2)c(=O)[nH]c1=O | 91.5 |
| Cc1ccc(-n2cnnn2)c2cccnc12 | 95.5 |
| O=C(Nc1ccccc1C(=O)N1CCCCCC1)c1cccc(S(=O)(=O)N2CCOCC2)c1 | 95.5 |
| CCc1ccccc1NC(=O)CCc1nc(-c2ccc(C)cc2)no1 | 95 |
| CCCn1c2c(c(O)c(C(=O)NC)c1=O)CCCC2 | 124 |
| CCOC(=O)c1nnn(-c2nonc2N)c1CN1CCc2ccccc2C1 | 102 |
| Cc1ccc(NC(=O)CCC(=O)O)cc1F | 106 |
| COC(=O)Nc1ccc(NC(C)=O)cc1 | 96 |
| c1ccc(SCc2nc3ccccc3[nH]2)nc1 | 99.5 |
| CC1CCCCC1NC(=O)CN1CCN(Cc2ccccc2Cl)C1=O (stereo unspecified) | 102 |
| CCOc1ccc(C(=O)N2CCN(C(=O)c3ccco3)CC2)cc1OCC | 110 |
| CCOC(=O)c1c(C)[nH]c(C=Nc2ccccc2)c1O | 94 |
| Cc1noc(C)c1COC(=O)c1ccccc1Oc1ccccc1 | 91 |
| CCOC(=O)N1CCN(c2c(N3CCN(c4ccccc4OC)CC3)c(=O)c2=O)CC1 | 94.5 |
| COc1ccc(N2C(N)=C(C#N)C(c3cccnc3)C3=C2CC(C)(C)CC3=O)cc1 (stereo unspecified) | 106 |
| CN(C1CCS(=O)(=O)C1)S(=O)(=O)c1cccc2nsnc12 (stereo unspecified) | 104 |
| Nc1nnc(C(=O)c2ccccc2N)s1 | 108 |
| CCC(C)NC(=O)C1(C)CCC(=O)N1CCc1ccc(OC)c(OC)c1 (stereo unspecified) | 104 |
| COC(=O)c1[nH]c2cc(OC)ccc2c1NC(=O)CN1CCOCC1 | 116 |
| Cn1c2c(c(=O)n(C)c1=O)C(c1cccc(Br)c1)C1C(=O)c3ccccc3C1=N2 (stereo unspecified) | 103 |
| C=CCNS(=O)(=O)c1ccc2nsnc2c1 | 102 |
| COc1ccc(C2=NOC(C(=O)NC3CCCCC3)C2)cc1OC (stereo unspecified) | 97.5 |
| O=C(CCSc1ccccc1)N1CCOCC1 | 94 |
| CCOC(=O)c1cnn(-c2cc(C)c3cc(C)cc(C)c3n2)c1N | 88.5 |
| CCn1cc(C(C)NC(=O)COc2ccc(Cl)cc2C)c(C)n1 (stereo unspecified) | 97 |
| CCCc1ccc(S(=O)(=O)NCCc2ccncc2)cc1 | 96 |
| CC1CN=C(N(C(=O)Nc2ccccc2)c2ccc(S(=O)(=O)N3CCOCC3)cc2)S1 (stereo unspecified) | 95.5 |
| COc1ccc(C2C(C(=O)NCCN3CCOCC3)c3ccccc3C(=O)N2C2CCCCC2)cc1 (stereo unspecified) | 88.5 |
| CCCCN(C)C(=O)CS(=O)(=O)Cc1nc(-c2cccc(OC)c2)oc1C | 94 |
| CCn1c(=O)c(=O)[nH]c2cc(C(=O)N3CCN(c4ccccc4F)CC3)ccc21 | 110 |
| O=C(COc1ccc(Cl)cc1)NCc1nnc(SCC(=O)Nc2ccc3c(c2)OCCO3)o1 | 102 |
| C[N+]12CCC(CC1)C(OC(=O)C(O)(c1ccccc1)c1ccccc1)C2 (stereo unspecified) | 97.5 |
| Cn1c(=O)c2c(ncn2CC(=O)OCC(=O)NC2CCCc3ccccc32)n(C)c1=O (stereo unspecified) | 98 |
| COc1cc(S(=O)(=O)N2CCC(N3CCCCC3)CC2)ccc1-n1cnnn1 | 92.5 |
| Cc1nc2ccc(NC(=O)N3CCSCC3)cc2s1 | 89.5 |

src = PubChem BioAssay
